Tested on: OVCAR-5
measurement notes: Growth inhibition of human OVCAR5 cells at 10 uM after 48 hrs by SRB assay relative to control
Assay type: functional
run conditions: OVCAR-5, 48 h, read-out: GI
Reported inhibition of growth at 10 µM values for a set of molecules
Unit % implied. Number only.

Exercise: Specify measured inhibition of growth at 10 µM for Cc1ccc(NC(=O)c2ccc(CN3CCN(C)CC3)cc2)cc1Nc1nccc(-c2cccnc2)n1 .
Solution: -22.8

New cases:
Exercise: Indicate the recorded inhibition of growth at 10 µM value for this molecule: COc1cccc(C(=O)Nc2cccc(-c3cc(=O)c4c(O)c(OC)c(OC)cc4o3)c2)c1
Solution: 9.51

Exercise: Supply recorded inhibition of growth at 10 µM for COc1cc(NC(=O)c2cccc(-c3cc(=O)c4c(OC)c(OC)c(OC)cc4o3)c2)cc(OC)c1OC here.
Solution: 14

Exercise: Find the measured inhibition of growth at 10 µM of COc1ccc(C(=O)Nc2cccc(-c3cc(=O)c4c(O)c(OC)c(OC)cc4o3)c2)cc1 and report it.
Solution: 0.04

Exercise: Fill in inhibition of growth at 10 µM for record COc1cc2oc(-c3cccc(C(=O)Nc4ccc5c(c4)OCO5)c3)cc(=O)c2c(O)c1OC
Solution: 11.1

Exercise: Name the recorded inhibition of growth at 10 µM of the molecule listed here: COc1ccccc1NC(=O)c1cccc(-c2cc(=O)c3c(O)c(OC)c(OC)cc3o2)c1
Solution: 8.1

Exercise: Supply reported inhibition of growth at 10 µM belonging to this molecule: COc1cccc(NC(=O)c2cccc(-c3cc(=O)c4c(OC)c(OC)c(OC)cc4o3)c2)c1
Solution: 9.93

Exercise: Give reported inhibition of growth at 10 µM value for COc1cccc(NC(=O)c2cccc(-c3cc(=O)c4c(O)c(OC)c(OC)cc4o3)c2)c1
Solution: 8.5

Exercise: Identify measured inhibition of growth at 10 µM associated with COc1cc2oc(-c3cccc(NC(=O)c4ccccc4)c3)cc(=O)c2c(OC)c1OC
Solution: -0.09

---

Tested on: DU-145
measurement notes: Growth inhibition of human DU145 cells at 10 uM after 48 hrs by SRB assay relative to control
Format: functional
run conditions: DU-145, 48 h, read-out: GI
Rule: Yes for inhibition of growth at 10 µM not less than 30%, No for anything less.

Exercise: Given COc1ccc(C(=O)Nc2cccc(-c3cc(=O)c4c(OC)c(OC)c(OC)cc4o3)c2)cc1 , state whether its inhibition of growth at 10 µM is at least 30%.
Solution: Yes

---

Tested on: KM12
measurement notes: Growth inhibition of human KM12 cells at 10 uM after 48 hrs by SRB assay relative to control
Assay type: functional
run conditions: KM12, 48 h, read-out: GI
measured attribute: inhibition of growth at 10 µM
Entry format: amount then unit.

Exercise: Specify inhibition of growth at 10 µM for COc1cccc(C(=O)Nc2cccc(-c3cc(=O)c4c(OC)c(OC)c(OC)cc4o3)c2)c1 , system KM12.
Solution: 53.9%

More entries:
Exercise: Give measured inhibition of growth at 10 µM for COc1ccccc1C(=O)Nc1cccc(-c2cc(=O)c3c(OC)c(OC)c(OC)cc3o2)c1 (KM12).
Solution: 61.6%

Exercise: // fetch inhibition of growth at 10 µM for COc1ccccc1NC(=O)c1cccc(-c2cc(=O)c3c(OC)c(OC)c(OC)cc3o2)c1 ; system: KM12
Solution: 34.8%

Exercise: Specify inhibition of growth at 10 µM for COc1cc2oc(-c3cccc(C(=O)Nc4ccccc4)c3)cc(=O)c2c(OC)c1OC , system KM12.
Solution: 24.3%

Source of measurements: ChEMBL document CHEMBL4325889
